test: Intracerebral microdialysis of brain parenchymal ECF; details: FVB, mouse, brain ECF (striatum microdialysate) vs plasma, intravenous, 4 mg/kg, ECF-to-plasma AUC ratio of unbound topotecan lactone (AUCu,ECF/AUCu,plasma), Mdr1a/b−/−Bcrp1−/− mice; topotecan 4 mg/kg i.v.; mean ±SD
Where a name gives a salt, the structure may show the parent alone.
READOUT TYPE: Kp

For record CC[C@@]1(O)C(=O)OCc2c1cc1n(c2=O)Cc2cc3c(CN(C)C)c(O)ccc3nc2-1 [Topotecan, Topotecan hydrochloride] the listed Kp is 0.89

====

experiment: Topotecan lactone plasma protein binding; type: in vitro ADME, mice; settings: FVB, mouse, unbound fraction of plasma topotecan lactone, wild-type mice, mean ±SD
Structures can show the parent of a compound that is named as a salt.
READOUT TYPE: fraction unbound
One number for each entry.

According to the records, this compound CC[C@@]1(O)C(=O)OCc2c1cc1n(c2=O)Cc2cc3c(CN(C)C)c(O)ccc3nc2-1 [Topotecan, Topotecan hydrochloride] displays fraction unbound of 0.301

====

experiment: Topotecan lactone plasma protein binding; assay type: in vitro ADME, mice; conditions: mouse, unbound fraction of plasma topotecan lactone, Mdr1a/b−/− mice, mean ±SD
Counter-ions that a name gives are not always drawn.
READOUT TYPE: fraction unbound
Give bare numbers.

CC[C@@]1(O)C(=O)OCc2c1cc1n(c2=O)Cc2cc3c(CN(C)C)c(O)ccc3nc2-1 [Topotecan, Topotecan hydrochloride] yielded fraction unbound of 0.292

====

test: Topotecan lactone plasma protein binding; format: in vitro ADME, mice; conditions: mouse, unbound fraction of plasma topotecan lactone, Mdr1a/b−/−Bcrp1−/− mice, mean ±SD
Where a name gives a salt, the structure may show the parent alone.
READOUT TYPE: fraction unbound
Answers are plain numbers.

Looking up CC[C@@]1(O)C(=O)OCc2c1cc1n(c2=O)Cc2cc3c(CN(C)C)c(O)ccc3nc2-1 [Topotecan, Topotecan hydrochloride] , I see its fraction unbound listed as 0.275

====

assay: Topotecan lactone plasma protein binding; assay type: in vitro ADME, mice; details: mouse, unbound fraction of plasma topotecan lactone, Bcrp1−/− mice, mean ±SD
Structures can show the parent of a compound that is named as a salt.
READOUT TYPE: fraction unbound
Numbers only.

Record CC[C@@]1(O)C(=O)OCc2c1cc1n(c2=O)Cc2cc3c(CN(C)C)c(O)ccc3nc2-1 [Topotecan, Topotecan hydrochloride] . Reported fraction unbound: 0.309

====

experiment: Intracerebral microdialysis of brain parenchymal ECF; conditions: Bcrp1−/−, mouse, brain ECF (striatum microdialysate) vs plasma, intravenous, 4 mg/kg, ECF-to-plasma AUC ratio of unbound topotecan lactone (AUCu,ECF/AUCu,plasma), Bcrp1−/− mice; topotecan 4 mg/kg i.v.; mean ±SD
Structures can show the parent of a compound that is named as a salt.
READOUT TYPE: Kp
Numbers only.

// CC[C@@]1(O)C(=O)OCc2c1cc1n(c2=O)Cc2cc3c(CN(C)C)c(O)ccc3nc2-1 [Topotecan, Topotecan hydrochloride] : Kp value = 0.42
